These measurements were taken from the RNAGym collection of RNA variant scans (doi:10.7554/elife.80360).

B1: CPEB3 Ribozyme (parent)
chain: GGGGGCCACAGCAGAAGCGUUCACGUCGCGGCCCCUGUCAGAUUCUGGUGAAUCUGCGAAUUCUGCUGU

# Variants of: B1
# assay-text: self-cleavage, relative activity (ratio to wild type); higher = more cleavage; co-transcriptional
quantity-measured: self-cleavage

Query block: Give the measured self-cleavage of G2U U61G .
Result block: 0.112

Query block: Give the measured self-cleavage of C27G C66G .
Result block: 0.119

Query block: Give the measured self-cleavage of A16G C54G .
Result block: 0.581

Query block: Give the measured self-cleavage of C35U U53G .
Result block: 0.636

Query block: Give the measured self-cleavage of A15U G28A .
Result block: 0.161

Query block: Give the measured self-cleavage of A23U U62C .
Result block: 0.885

Query block: Give the measured self-cleavage of G3U C18G .
Result block: 0.0415

Query block: Give the measured self-cleavage of G4C C33A .
Result block: 0.989

Query block: Give the measured self-cleavage of C33G G41C .
Result block: 0.27

Query block: Give the measured self-cleavage of C35U G50U .
Result block: 0.94

Query block: Give the measured self-cleavage of G2C A23G .
Result block: 0.0311
